Data credit: patent US12084472B2

target_system: human TGR5 (Homo sapiens)
Construct: expressed in transfected cells; host or cells: HEK293
Sequence (Q8TDU6 whole entry): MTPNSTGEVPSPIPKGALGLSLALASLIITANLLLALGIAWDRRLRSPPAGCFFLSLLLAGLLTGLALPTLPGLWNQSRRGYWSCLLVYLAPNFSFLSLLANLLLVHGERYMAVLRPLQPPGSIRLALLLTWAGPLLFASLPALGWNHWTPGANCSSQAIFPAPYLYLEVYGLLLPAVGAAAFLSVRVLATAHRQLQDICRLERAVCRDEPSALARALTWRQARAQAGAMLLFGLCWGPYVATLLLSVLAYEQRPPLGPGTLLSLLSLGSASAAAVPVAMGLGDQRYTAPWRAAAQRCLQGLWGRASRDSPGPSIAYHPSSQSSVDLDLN
test_name: Cell-based TGR5 assay (cAMP generation, HTRF)
conditions_used: HEK293 cells stably transfected with human TGR5; cAMP by HTRF; 30 minutes at 37° C.; read-out: pEC50 Human TGR5 (converted)
measured_property: EC50

Reference set (5 entries):
CN(C[C@H](O)[C@@H](O)[C@H](O)[C@H](O)CO)C(=O)CCCCc1cc(Cl)c(COC2(c3cnccc3-c3ccccc3OC3COC3)CC2)cc1Cl : < 100 nM
Cc1cc(COC2(c3cnccc3-c3ccccc3OC3CC3)CC2)c(Cl)cc1CCCCN : < 100 nM
Clc1cc(Cl)cc(COC2(c3cnccc3-c3ccccc3OC3CC3)CC2)c1 : 1260 to 10000 nM
CN(C)S(=O)(=O)c1cc(COC2(c3cnccc3-c3ccccc3OC3CC3)CC2)c(Cl)cc1O : < 100 nM
O=C(COCC1CCN(S(=O)(=O)c2ccc(Cl)c(COC3(c4cnccc4-c4ccccc4OC4CC4)CC3)c2)C1)NC[C@H](O)[C@@H](O)[C@H](O)[C@H](O)CO (stereo partly shown) : < 100 nM

IN: Give the reported value of EC50 for this record: O=C(NC[C@H](O)[C@@H](O)[C@H](O)[C@H](O)CO)NC1CCN(C(=O)CCCCc2cc(Cl)c(COC3(c4cnccc4-c4ccccc4OC4CC4)CC3)cc2Cl)CC1 (stereo in doubt)
OUT: < 100 nM

IN: Fill in reported EC50 for this entry: CC(C)c1ccc(SCCCC(=O)N(C)C[C@H](O)[C@@H](O)[C@H](O)[C@H](O)CO)cc1COC1(c2cnccc2-c2ccccc2OC2CC2)CC1
OUT: 1260 to 10000 nM
